Every entry's value here was drawn from patent US20260200943A1.

molecular target: CDK2/CyclinA2 (Homo sapiens); construct: Wild-type, full length CDK2 in complex with wildtype, full length CyclinA2: Carna Cat #04-103; purchased Carna 04-103; assay: CDK2/CyclinA2 ChEF Assay (Table A); type: biochemical; conditions: 10xKm, read-out: CDK2/CCNA2 ChEF 10xKm Ki: Average Ki
Can you tell me Ki for the items I'm about to list?

Exercise: Hello, please tell me recorded Ki for this one: CC1(C)CCCNS(=O)(=O)c2ccc(c(F)c2)Nc2cc([nH]n2)[C@H]2CC[C@H](C2)OC(=O)N1
Solution: 1 to 25 nM

Exercise: Hello, please tell me recorded Ki for this one: O=C1NCCOCCNS(=O)(=O)c2ccc(c(F)c2)Nc2cc([nH]n2)[C@H]2CC[C@H](C2)O1
Solution: 1 to 25 nM

Exercise: Hello, please tell me recorded Ki for this one: O=C1NCC=CCNS(=O)(=O)c2ccc(c(F)c2)Nc2cc([nH]n2)[C@H]2CC[C@H](C2)O1
Solution: < 1 nM

Exercise: Hello, please tell me recorded Ki for this one: O=C1NCCCCCCn2cc(cn2)S(=O)(=O)N2CCC(CC2)Nc2cc([nH]n2)[C@H]2CC[C@H](C2)O1
Solution: < 1 nM

Exercise: Hello, please tell me recorded Ki for this one: O=C1NCCCCCCNS(=O)(=O)c2ccc(c(F)c2)Nc2cc([nH]n2)[C@H]2CC[C@H](C2)O1
Solution: < 1 nM

Exercise: Hello, please tell me recorded Ki for this one: O=C1NCCCCn2cc(cn2)S(=O)(=O)N2CCC(CC2)Nc2cc([nH]n2)[C@H]2CC[C@H](C2)O1
Solution: 25 to 100 nM

====

biological target: T1, CDK2/CyclinA2 (Homo sapiens, UniProt P24941); experiment: CDK2/CyclinA2 ChEF Assay (Table A); assay type: biochemical; settings: selectivity over CDK9/T1
T1 construct: Wild-type, full length CDK2 in complex with wildtype, full length CyclinA2: Carna Cat #04-103; purchased Carna 04-103
measurementKind: CDK2/CCNA2 ChEF 10xKm Ki: CDK2/A2 Selectivity over CDK9/T1

molecule	measuredValue
CC1(C)CCCNS(=O)(=O)c2ccc(c(F)c2)Nc2cc([nH]n2)[C@H]2CC[C@H](C2)OC(=O)N1 [Compound 101]	A (A>10)
O=C1NCCCCCCCNS(=O)(=O)c2ccc(c(F)c2)Nc2cc([nH]n2)[C@H]2CC[C@H](C2)O1 [Compound 92]	A (A>10)
O=C1NCCCCCn2cc(cn2)S(=O)(=O)N2CCC(CC2)Nc2cc([nH]n2)[C@H]2CC[C@H](C2)O1 [Compound 96]	A (A>10)

====

target: CDK2/CyclinA2 (Homo sapiens, UniProt P24941); construct: Wild-type, full length CDK2 in complex with wildtype, full length CyclinA2: Carna Cat #04-103; purchased Carna 04-103; assay: CDK2/CyclinA2 ChEF Assay (AQT, Table C); format: biochemical; conditions: AQT ChEF, 10xKm; read-out: CDK2/CCNA2 AQT10xKm Ki: Average Ki
Can you tell me Ki for the items I'm about to list?

Exercise: Hello, please tell me recorded Ki for this one: NS(=O)(=O)c1ccc2cc1OCCCCCNC(=O)O[C@@H]1CC[C@@H](C1)c1cnc(nc1)N2 (stereo in doubt)
Solution: < 1 nM

Exercise: Hello, please tell me recorded Ki for this one: O=C1NCCCCCCn2cc(cn2)S(=O)(=O)N2CCC(CC2)Nc2cc([nH]n2)[C@H]2CC[C@H](C2)O1
Solution: < 1 nM

Exercise: Hello, please tell me recorded Ki for this one: O=C1NCCCCCCNS(=O)(=O)c2ccc(c(F)c2)Nc2cc([nH]n2)[C@H]2CC[C@H](C2)O1
Solution: < 1 nM

Exercise: Hello, please tell me recorded Ki for this one: NS(=O)(=O)c1ccc2cc1OCCCCCNC(=O)O[C@H]1CC[C@H](C1)c1cnc(nc1)N2 (stereo in doubt) [Compound 104]
Solution: < 1 nM

Exercise: Hello, please tell me recorded Ki for this one: NS(=O)(=O)c1ccc2cc1OCCCCCNC(=O)O[C@H]1CC[C@H](C1)c1cnc(nc1)N2 (stereo in doubt) [Compound 103]
Solution: < 1 nM
